This listing pairs molecules with measured inhibition.
TEST_NAME: ATP-evoked calcium signal inhibitors, parental CHO, primary screen, counter-screen for OX1R antagonist project, cell-based, fluorescence, Fluo-8 calcium dye (AID 463079);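 also: 0% = ATP-challenged DMSO wells and 100% = DMSO wells without ATP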
REPORTED_CONDITIONS: parental CHO-K1, ATP-induced calcium, Fluo-8 fluorescence; at 5.6 µM; stronger effect = higher value
About 2,000 (0.61%) of roughly 330,000 compounds were called active. This is one part of a sample in which actives are shown more often than they occur.

MOLECULE	inhibition
O=Cc1c(Cl)cccc1Cl	-9.8% (inactive)
O=C(Cc1c(F)cccc1Cl)Nc1ncc([N+](=O)[O-])s1	3.65% (inactive)
CC(=O)N1CCCc2cc(S(=O)(=O)N3CCCC(C(=O)NCc4ccc(Cl)cc4)C3)ccc21 (stereo not drawn)	-11.9% (inactive)
CCOc1ccc(C(=O)Nc2cccc(-c3ccc4nncn4n3)c2)cc1	-7.65% (inactive)
CC(=O)Nc1ccc(S(=O)(=O)NCCC(=O)N2CCN(c3ccccc3Cl)CC2)cc1	-3.47% (inactive)
O=C(O)CN(Cc1ccco1)S(=O)(=O)c1ccccc1	-6.05% (inactive)
COc1ccc(NC2CCCN(C(=O)c3ccncc3)C2)cc1 (stereo not drawn)	-8.33% (inactive)
COc1ccc(/C=C/C(=O)Nc2c(C)nn(C)c2C)cc1COc1ccc(Br)cc1	13.3% (inactive)
COC(=O)c1sc(-c2ccc(C(C)(C)C)cc2)cc1NC(=O)/C=C/C(=O)O	38.8% (active)
Cc1cc(OC(=O)c2ccc(Cl)cc2)cc(=O)n1C	-3.96% (inactive)
NNC(=O)C1CC(O)CN1S(=O)(=O)c1ccc(Cl)cc1 (stereo not drawn)	-12.3% (inactive)
COc1cc2c(cc1OC)C(C(=O)NCc1ccco1)C1c3ccccc3CCN1C2=O (stereo not drawn)	-23.7% (inactive)
CCCCCCCCCCOC(=O)Cn1c(COc2ccc(C)cc2)[n+](C)c2ccccc21	78.8% (active)
